Data credit: BigSolDB 2.1

- Assay context: in DMF, 278.15 K
Measure: solubility (mole fraction)
Numbers only.

Supply measured solubility (mole fraction) of `C#C[C@]1(O)CC[C@H]2[C@@H]3CCC4=CC(=O)CC[C@@H]4[C@H]3C(=C)C[C@@]21CC` in your reply.
0.0792

----------
- Assay context: in n-butanol, 278.15 K
Measure: solubility (mole fraction)

Supply measured solubility (mole fraction) of `C#C[C@]1(O)CC[C@H]2[C@@H]3CCC4=CC(=O)CC[C@@H]4[C@H]3C(=C)C[C@@]21CC` in your reply.
0.00514

----------
- Assay context: in methyl acetate, 278.15 K
Measure: solubility (mole fraction)
Numbers only.

Supply measured solubility (mole fraction) of `C#C[C@]1(O)CC[C@H]2[C@@H]3CCC4=CC(=O)CC[C@@H]4[C@H]3C(=C)C[C@@]21CC` in your reply.
0.0119
